Let's look at some molecules and their measured TGI.
tested on: SNB-19 CNS; assay: NCI tumour cell line growth inhibition, 48 h
Measurement Type: TGI

INSERT INTO assay_data (molecule, observed_measurement) VALUES
  ('COC(=O)c1c2c(cc3c1CC1(Cc4cc5c(c(C)c4C1)CCC5)C3)CCC2 (stereo not given)', '> 100 µM'),
  ('Cc1cc(C)nc(NS(=O)(=O)c2ccc(NNc3c4ccccc4nc4c(C(=O)Nc5ccc(S(=O)(=O)Nc6cc(C)on6)cc5)cccc34)cc2)n1', '> 100 µM'),
  ('O=C(O)COc1ccc(OCC(=O)O)cc1', '11.3 µM'),
  ('CCc1ccc2oc(=O)ccc2c1', '> 100 µM'),
  ('CC(C)N(C(=O)C12C3C4C5(C(=O)O)C(C1C35I)C42C(=O)O)C(C)C (stereo not given)', '> 100 µM'),
  ('C=C(C(=O)OC)[C@@H]1CC2OC1C(=O)C(C)CCC/C(C)=C/CC[C@@]2(C)O (stereo not given in full)', '> 100 µM'),
  ('COC(=O)[C@@H](NS(=O)(=O)CC12CCC(CC1)C2(C)C)C(C)(C)C', '> 100 µM'),
  ('CC(=O)CC(=O)N1CCSC1=S', '> 10 µM'),
  ('S=C1C(=Nc2ccccc2)N(c2ccccc2)/C(=N\c2cccc[n+]2Cc2ccccc2)N1c1ccccc1', '34.8 µM'),
  ('Cc1ccc(N2C(=O)/C(=C/c3ccc(N(CCC#N)CCC#N)cc3)N=C2COc2ccc(Cl)cc2Cl)cc1', '> 100 µM'),
  ('O=Nc1c(-c2c(O)[nH]c3ccc(I)cc23)[nH]c2ccccc12', '> 62.1 µM'),
  ('O=C(O)Cn1c2c(c3c1-c1ccccc1C3=O)C(=O)CCC2', '> 100 µM'),
  ('COC(=O)c1onc(C2OC(C)(C)OC2C(O)COC(c2ccccc2)(c2ccccc2)c2ccccc2)c1C(=O)OC (stereo not given)', '> 100 µM'),
  ('CC(C)[C@H](C)/C=C/[C@@H](C)C1CC[C@H]2[C@@]34C=C[C@]5(C[C@@H](O)CC[C@]5(C)[C@H]3CC[C@]12C)OO4 (stereo not given in full)', '81.7 µM'),
  ('C/C(=C\Cc1ccc(F)cc1)CCCCCC/C(C)=C/Cc1ccc(F)cc1', '75.9 µM'),
  ('c1ccc2c[n+](CCCC[n+]3ccc4ccccc4c3)ccc2c1', '> 100 µM'),
  ('NC(N)=NC(N)=Nc1ccc(C(=O)O)cc1', '> 100 µM'),
  ('CC(=O)OCC1OC(SC2=NC(=O)CS2)C(OC(C)=O)C(OC(C)=O)C1OC(C)=O (stereo not given)', '> 100 µM'),
  ('Cc1cc(N2CCCCC2)nc2ccc(Cc3ccc4nc(N5CCCCC5)cc(C)c4c3)cc12', '> 100 µM'),
  ('COc1ccc(CSC2=C(C#N)C(=O)NC3(CCCCC3)S2)cc1', '> 100 µM');

----------
test system: OVCAR-4 ovarian; experiment: NCI tumour cell line growth inhibition, 48 h
Let's look at some compounds and their measured TGI.
Measurement Type: TGI

INSERT INTO assay_data (compound, target_desc, measurement_type, observed_measurement) VALUES
  ('[N-]=[N+]=Nc1nc2ccccc2c(N=[N+]=[N-])c1Cl', 'OVCAR-4 ovarian', 'TGI', '> 100 µM'),
  ('CCCC1=C(OC)C(=O)c2c(C)cc(Cl)nc2C1=O', 'OVCAR-4 ovarian', 'TGI', '19.5 µM'),
  ('O=c1cc(-c2ccccc2)oc2c1ccc1[nH]c3ccccc3c(=O)c12', 'OVCAR-4 ovarian', 'TGI', '> 100 µM'),
  ('Cc1cc2c(c(C(=O)NCC(=O)O)c1)Oc1c(cc(C)cc1C(=O)NCC(=O)O)S2', 'OVCAR-4 ovarian', 'TGI', '> 100 µM'),
  ('O=C(O)Cn1c2c(c3c1-c1ccccc1C3=O)C(=O)CCC2', 'OVCAR-4 ovarian', 'TGI', '> 100 µM'),
  ('Oc1cccc2c(Br)ccnc12', 'OVCAR-4 ovarian', 'TGI', '10.2 µM'),
  ('COc1cccc2c1OC1c3ccccc3OCC1(O)C2 (centres undefined)', 'OVCAR-4 ovarian', 'TGI', '> 100 µM'),
  ('CC/C=C/c1cc2c(cc1O)CCC1C2CC[C@@]2(C)C1CC[C@@H]2O (some centres undefined)', 'OVCAR-4 ovarian', 'TGI', '35.3 µM'),
  ('C=CCC12CC(=O)CCC1c1ccc(OC)cc1C2=O (centres undefined)', 'OVCAR-4 ovarian', 'TGI', '> 100 µM'),
  ('Cc1ccc(S(=O)(=O)n2cc([C@@]3(O)C[C@H](CSC#N)OC3=O)c3ccccc32)cc1', 'OVCAR-4 ovarian', 'TGI', '43.3 µM'),
  ('Cc1nc(NS(=O)(=O)c2ccc(NCN3C(=O)c4ccccc4C3=O)cc2)oc1C', 'OVCAR-4 ovarian', 'TGI', '> 100 µM'),
  ('NC1CCCCC1NCCNC1CCCCC1N (centres undefined)', 'OVCAR-4 ovarian', 'TGI', '> 100 µM'),
  ('CCOC(=O)c1c(N2CCCC2)[nH]c(=O)c(C(c2ccc(N(C)C)cc2)c2c(O)c(C(=O)OCC)c(N3CCCC3)[nH]c2=O)c1O', 'OVCAR-4 ovarian', 'TGI', '> 100 µM'),
  ('C=C(Br)C[N+]12CN3CN(CN(C3)C1)C2', 'OVCAR-4 ovarian', 'TGI', '> 100 µM'),
  ('COC1=C(OC)C(=O)C(C/C=C(\C)CC/C=C(\C)CC/C=C(\C)CC/C=C(\C)CC/C=C(\C)CC/C=C(\C)CC/C=C(\C)CC/C=C(\C)CC/C=C(\C)CCC=C(C)C)=C(C)C1=O', 'OVCAR-4 ovarian', 'TGI', '> 100 µM'),
  ('Cc1ccc(-n2nncc2[Si](C)(C)C)s1', 'OVCAR-4 ovarian', 'TGI', '> 100 µM'),
  ('O=c1cc(-c2ccccc2)[nH]c2c1CCCC2', 'OVCAR-4 ovarian', 'TGI', '> 100 µM'),
  ('COc1cc(C2c3cc4c(cc3OC(O)C2C)OCO4)cc(OC)c1OC (centres undefined)', 'OVCAR-4 ovarian', 'TGI', '> 79.4 µM'),
  ('COc1ccc(-c2cc3ccccc3[nH]c2=O)cc1OC', 'OVCAR-4 ovarian', 'TGI', '> 100 µM'),
  ('COc1c(C)c(C/C=C(\C)CCCC(C)CCCC(C)CCCC(C)C)c(OC)c2ccccc12 (centres undefined)', 'OVCAR-4 ovarian', 'TGI', '> 100 µM'),
  ('O=C1c2ccccc2C2(c3ccc(F)cc3)NCCN12 (centres undefined)', 'OVCAR-4 ovarian', 'TGI', '> 100 µM'),
  ('Oc1ccc2ccccc2c1OCc1nnc(CCCCCCCCc2nnc(COc3c(O)ccc4ccccc34)n2Nc2ccccc2)n1Nc1ccccc1', 'OVCAR-4 ovarian', 'TGI', '> 100 µM'),
  ('COc1ccc(/C=C2\CCCc3ccccc3C2=O)cc1', 'OVCAR-4 ovarian', 'TGI', '> 100 µM'),
  ('CC(C)=Cc1cc(CCC/C(C)=C/Cc2c(O)cc(C)c(C(=O)O)c2O)co1', 'OVCAR-4 ovarian', 'TGI', '> 100 µM'),
  ('Cc1cn(C2CC(COCc3ccccc3)N(CCO[Si](C)(C)C(C)(C)C)O2)c(=O)[nH]c1=O (centres undefined)', 'OVCAR-4 ovarian', 'TGI', '33.4 µM'),
  ('CC(=O)/C=C/c1ccccc1', 'OVCAR-4 ovarian', 'TGI', '> 100 µM'),
  ('Clc1ccc(-c2nn3c(COc4cccc(OCc5nnc6sc(-c7ccc(Cl)cc7)nn56)c4)nnc3s2)cc1', 'OVCAR-4 ovarian', 'TGI', '27.6 µM'),
  ('COc1cc(F)c(F)cc1C(=O)c1cnc(NC2CCN(S(C)(=O)=O)CC2)nc1N', 'OVCAR-4 ovarian', 'TGI', '> 25 µM'),
  ('O=C1CC(C2(O)C(=O)Nc3ccc([N+](=O)[O-])cc32)c2ccccc21 (centres undefined)', 'OVCAR-4 ovarian', 'TGI', '88.1 µM'),
  ('O=c1c2ccccc2oc2ccccc12 (tested in a mixture with another compound)', 'OVCAR-4 ovarian', 'TGI', '> 100 µM'),
  ('COc1cc2c3c(n(C)c(=O)c2cc1OC)-c1cc2c(cc1/C3=C\CCCCCBr)OCO2', 'OVCAR-4 ovarian', 'TGI', '> 100 µM'),
  ('Cc1nc2ccc(Cl)cc2c2c1CCO2', 'OVCAR-4 ovarian', 'TGI', '> 100 µM'),
  ('O=c1[nH]c2ccccc2c(O)c1/C=N/C(=S)NC1CCCCC1', 'OVCAR-4 ovarian', 'TGI', '> 100 µM'),
  ('CC(C)[C@H](C)/C=C/[C@@H](C)C1CC[C@H]2[C@@]34C=C[C@]5(C[C@@H](O)CC[C@]5(C)[C@H]3CC[C@]12C)OO4 (some centres undefined)', 'OVCAR-4 ovarian', 'TGI', '> 100 µM');
